These data points were gathered from paper PMC5111045.

# targetOrTestSystem: E661A mutant NMDA channel
# assayProtocol: Outside-out patch recordings, E661A mutant NMDA channel
# Type: cell-based, rat
# particulars: Hill coefficient of 1 assumed, Fig. 5e inset, read-out: apparent dissociation constant, closed channel, derived from relative peak current in 30 μM Cd2+
measuredProperty: pKd
pKd here is simply -log10 of the concentration when that concentration is written in mol/L.

Qu. What does the data say about its pKd? Entry: `[Cd+2]`
Ans. 4.39

====

# targetOrTestSystem: E662A mutant NMDA channel
# assayProtocol: Outside-out patch recordings, E662A mutant NMDA channel
# Format: cell-based, rat
# particulars: Hill coefficient of 1 assumed, Fig. 5e inset, read-out: apparent dissociation constant, closed channel, derived from relative peak current in 30 μM Cd2+
# Procedure: The rat GluN1a variant and GluN2B cDNA clones were used in this study. Point mutations were made by site-directed mutagenesis using the QuickChange Site-Directed Mutagenesis kit (Stratagene, La Jolla, CA). Mutations were verified by DNA sequencing to ensure the lack of any inadvertent mutations. The capped cRNA transcripts were then synthesized using T7 and T3 mMESSAGE mMACHINE transcription kits (Ambion, Austin, TX), and were stored at −80 °C. […]
measuredProperty: pKd
pKd here is simply -log10 of the concentration when that concentration is written in mol/L.

Qu. What does the data say about its pKd? Entry: [Cd+2] [Cd^2+]
Ans. 4.43

====

# targetOrTestSystem: NMDA receptor channel (GluN1a variant/GluN2B), wild-type (Rattus norvegicus, UniProt P35439+Q00960)
# Construct: expressed in transfected cells; host or cells: Xenopus laevis oocytes (cRNA injection)
# Sequence (Q00960 27-1482, other chains not shown): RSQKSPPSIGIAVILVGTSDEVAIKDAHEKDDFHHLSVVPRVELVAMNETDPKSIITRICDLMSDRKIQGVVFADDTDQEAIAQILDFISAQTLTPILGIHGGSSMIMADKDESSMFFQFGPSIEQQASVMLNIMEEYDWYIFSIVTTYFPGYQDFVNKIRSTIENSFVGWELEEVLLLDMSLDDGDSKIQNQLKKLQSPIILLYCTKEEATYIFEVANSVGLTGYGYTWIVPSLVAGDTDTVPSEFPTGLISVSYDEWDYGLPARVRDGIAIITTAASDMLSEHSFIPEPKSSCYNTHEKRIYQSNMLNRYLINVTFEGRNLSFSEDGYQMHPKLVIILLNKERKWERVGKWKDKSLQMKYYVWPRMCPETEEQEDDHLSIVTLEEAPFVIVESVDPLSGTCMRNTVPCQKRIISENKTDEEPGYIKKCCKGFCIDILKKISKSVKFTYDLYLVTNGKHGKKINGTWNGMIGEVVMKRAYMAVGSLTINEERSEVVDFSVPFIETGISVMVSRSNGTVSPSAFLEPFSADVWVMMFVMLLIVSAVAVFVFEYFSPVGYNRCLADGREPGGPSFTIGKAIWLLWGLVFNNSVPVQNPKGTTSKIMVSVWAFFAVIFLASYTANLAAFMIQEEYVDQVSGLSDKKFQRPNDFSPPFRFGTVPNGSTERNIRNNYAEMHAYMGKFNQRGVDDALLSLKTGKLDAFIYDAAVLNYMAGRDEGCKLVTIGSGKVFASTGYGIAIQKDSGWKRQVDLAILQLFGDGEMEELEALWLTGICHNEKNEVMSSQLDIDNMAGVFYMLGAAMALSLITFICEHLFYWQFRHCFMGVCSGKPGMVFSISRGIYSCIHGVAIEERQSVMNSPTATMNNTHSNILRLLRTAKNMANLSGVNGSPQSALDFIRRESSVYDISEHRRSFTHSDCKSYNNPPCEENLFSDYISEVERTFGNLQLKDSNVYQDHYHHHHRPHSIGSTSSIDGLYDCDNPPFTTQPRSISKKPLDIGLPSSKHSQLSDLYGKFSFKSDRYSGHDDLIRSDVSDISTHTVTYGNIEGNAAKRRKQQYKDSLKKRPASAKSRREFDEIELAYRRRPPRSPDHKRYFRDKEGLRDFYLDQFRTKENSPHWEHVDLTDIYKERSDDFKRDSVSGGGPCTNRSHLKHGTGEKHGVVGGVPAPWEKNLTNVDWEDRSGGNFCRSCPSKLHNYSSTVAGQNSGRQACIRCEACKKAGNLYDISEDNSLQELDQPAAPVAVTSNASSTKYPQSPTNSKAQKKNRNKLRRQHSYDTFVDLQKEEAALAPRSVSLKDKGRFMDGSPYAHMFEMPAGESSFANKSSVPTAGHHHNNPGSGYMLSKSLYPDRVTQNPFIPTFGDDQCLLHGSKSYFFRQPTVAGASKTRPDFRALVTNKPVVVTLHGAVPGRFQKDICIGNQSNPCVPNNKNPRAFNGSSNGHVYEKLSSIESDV
# assayProtocol: Outside-out patch recordings of NMDA receptor currents, wild-type channel expressed in Xenopus oocytes
# Type: cell-based
# particulars: read-out: apparent dissociation constant of NMDA (KN), fit to activation data
measuredProperty: Kd

Qu. What does the data say about its Kd? Entry: CN[C@H](CC(=O)O)C(=O)O [NMDA]
Ans. 47 µM

====

# targetOrTestSystem: NMDA receptor channel (GluN1a variant/GluN2B), wild-type (Rattus norvegicus, UniProt P35439+Q00960)
# Construct: expressed in transfected cells; host or cells: Xenopus laevis oocytes (cRNA injection)
# assayProtocol: Outside-out patch recordings of NMDA receptor currents, wild-type channel expressed in Xenopus oocytes
# Assay type: cell-based
# particulars: wild-type; Hill coefficient of 1 assumed; Fig. 6e inset; read-out: apparent dissociation constant, activated channel, derived from relative sustained current in 30 μM Cd2+
measuredProperty: pKd
pKd here is simply -log10 of the concentration when that concentration is written in mol/L.

Qu. What does the data say about its pKd? Entry: `[Cd+2]`
Ans. 5.49

====

# targetOrTestSystem: E662A mutant NMDA channel
# assayProtocol: Outside-out patch recordings, E662A mutant NMDA channel
# Type: cell-based, rat
# particulars: Hill coefficient of 1 assumed, Fig. 6e inset, read-out: apparent dissociation constant, activated channel, derived from relative sustained current in 30 μM Cd2+
measuredProperty: pKd
pKd here is simply -log10 of the concentration when that concentration is written in mol/L.

Qu. What does the data say about its pKd? Entry: `[Cd+2]`
Ans. 5.25

====

# targetOrTestSystem: NMDA receptor channel (GluN1a variant/GluN2B), wild-type (Rattus norvegicus, UniProt P35439+Q00960)
# Construct: expressed in transfected cells; host or cells: Xenopus laevis oocytes (cRNA injection)
# assayProtocol: Outside-out patch recordings of NMDA receptor currents, wild-type channel expressed in Xenopus oocytes
# Format: cell-based
# particulars: activated channel, sustained current; mean ± SEM; read-out: Kd from fits of each individual data set, Fig. 3b
measuredProperty: Kd (nM)
Dear colleague, please return just the value in nM, with no unit written.

Qu. What does the data say about its Kd? Entry: `[Cd+2]`
Ans. 1400

====

# targetOrTestSystem: NMDA receptor channel (GluN1a variant/GluN2B), wild-type (Rattus norvegicus, UniProt P35439+Q00960)
# Construct: expressed in transfected cells; host or cells: Xenopus laevis oocytes (cRNA injection)
# assayProtocol: Outside-out patch recordings of NMDA receptor currents, wild-type channel expressed in Xenopus oocytes
# Assay type: cell-based
# particulars: model fit (equations 2 and 4) to activation and desensitization data in 3 μM Cd2+; not a precise estimate; read-out: KCd2+,o (dissociation constant for Cd2+ binding to the open NMDA channel)
measuredProperty: Kd
Include the unit right after the number.

Qu. What does the data say about its Kd? Entry: `[Cd+2]`
Ans. 2500 nM

====

# targetOrTestSystem: NMDA receptor channel (GluN1a variant/GluN2B), wild-type (Rattus norvegicus, UniProt P35439+Q00960)
# Construct: expressed in transfected cells; host or cells: Xenopus laevis oocytes (cRNA injection)
# assayProtocol: Outside-out patch recordings of NMDA receptor currents, wild-type channel expressed in Xenopus oocytes
# Type: cell-based
# particulars: wild-type; Hill coefficient of 1 assumed; Fig. 5e inset; read-out: apparent dissociation constant, closed channel, derived from relative peak current in 30 μM Cd2+
measuredProperty: Kd (µM)
Dear colleague, please return just the value in µM, with no unit written.

Qu. What does the data say about its Kd? Entry: `[Cd+2]`
Ans. 19.6

====

# targetOrTestSystem: NMDA receptor channel (GluN1a variant/GluN2B), wild-type (Rattus norvegicus, UniProt P35439+Q00960)
# Construct: expressed in transfected cells; host or cells: Xenopus laevis oocytes (cRNA injection)
# assayProtocol: Outside-out patch recordings of NMDA receptor currents, wild-type channel expressed in Xenopus oocytes
# Assay type: cell-based
# particulars: activated (steady-state mixture of open and desensitized) channel; Cd2+ during the NMDA pulse; Fig. 3b, n = 7; read-out: apparent dissociation constant (Kd), Hill fit of relative sustained current
pKd: −log10 of the molar value.
measuredProperty: pKd

Qu. What does the data say about its pKd? Entry: `[Cd+2]`
Ans. ~5.80

====

# targetOrTestSystem: NMDA receptor channel (GluN1a variant/GluN2B), wild-type (Rattus norvegicus, UniProt P35439+Q00960)
# Construct: expressed in transfected cells; host or cells: Xenopus laevis oocytes (cRNA injection)
# assayProtocol: Outside-out patch recordings of NMDA receptor currents, wild-type channel expressed in Xenopus oocytes
# Type: cell-based
# particulars: equal to KCd2+,o × m/r from model fits in 3 μM Cd2+; not a precise estimate; read-out: KCd2+,d (dissociation constant for Cd2+ binding to the desensitized NMDA channel)
measuredProperty: pKd
pKd here is simply -log10 of the concentration when that concentration is written in mol/L.

Qu. What does the data say about its pKd? Entry: `[Cd+2]`
Ans. 5.90

====

# targetOrTestSystem: NMDA receptor channel (GluN1a variant/GluN2B), wild-type (Rattus norvegicus, UniProt P35439+Q00960)
# Construct: expressed in transfected cells; host or cells: Xenopus laevis oocytes (cRNA injection)
# assayProtocol: Outside-out patch recordings of NMDA receptor currents, wild-type channel expressed in Xenopus oocytes
# Type: cell-based
# particulars: ratio between the macroscopic off rate and on rate, Fig. 4a inset; read-out: rough estimate of the dissociation constant of Cd2+ to the open state
measuredProperty: Kd

Qu. What does the data say about its Kd? Entry: `[Cd+2]`
Ans. ~16 µM

====

# targetOrTestSystem: NMDA receptor channel (GluN1a variant/GluN2B), wild-type (Rattus norvegicus, UniProt P35439+Q00960)
# Construct: expressed in transfected cells; host or cells: Xenopus laevis oocytes (cRNA injection)
# assayProtocol: Outside-out patch recordings of NMDA receptor currents, wild-type channel expressed in Xenopus oocytes
# Format: cell-based
# particulars: closed channel, activation speed; mean ± SEM; read-out: Kd from fits of each individual data set, Fig. 2d
measuredProperty: pKd
pKd here is simply -log10 of the concentration when that concentration is written in mol/L.

Qu. What does the data say about its pKd? Entry: `[Cd+2]`
Ans. 5.47

====

# targetOrTestSystem: E661A mutant NMDA channel
# assayProtocol: Outside-out patch recordings, E661A mutant NMDA channel
# Type: cell-based, rat
# particulars: Hill coefficient of 1 assumed, Fig. 6e inset, read-out: apparent dissociation constant, activated channel, derived from relative sustained current in 30 μM Cd2+
measuredProperty: pKd
pKd here is simply -log10 of the concentration when that concentration is written in mol/L.

Qu. What does the data say about its pKd? Entry: `[Cd+2]`
Ans. 5.11

====

# targetOrTestSystem: NMDA receptor channel (GluN1a variant/GluN2B), wild-type (Rattus norvegicus, UniProt P35439+Q00960)
# Construct: expressed in transfected cells; host or cells: Xenopus laevis oocytes (cRNA injection)
# assayProtocol: Outside-out patch recordings of NMDA receptor currents, wild-type channel expressed in Xenopus oocytes
# Assay type: cell-based
# particulars: closed channel, peak current; mean ± SEM; read-out: Kd from fits of each individual data set, Fig. 2b
measuredProperty: Kd (µM)
Dear colleague, please return just the value in µM, with no unit written.

Qu. What does the data say about its Kd? Entry: `[Cd+2]`
Ans. 7.6
